The entries below come with measured Tm values attached.
- ASSAY_OVERVIEW: melting temperature; fluorescence melt of hairpins on a sequencing array, two-state fit, raised by 9.35 °C to match UV melts
- RUN_CONDITIONS: sodium 0.088 M
REPORTED_PROPERTY: Tm (°C)

> print(dat)
                            sequence.code  value.measured
 1  GCCTGCGAAAGCATGGGC ((((((....)))..)))            56.7
 2    GCACGACGAAAGTCTGC (((.(((....))))))            52.4
 3  GAAACGGGAAACCGCTTC (((.(((....))).)))            40.4
 4      CGCGGATGGCTCCGCG ((((((....))))))            68.9
 5  GTGGGCACGAAAGTGCAC (((..(((....))))))            65.4
 6      GTAAAAGAAATTTTAC ((((((....))))))            30.8
 7      GATCGATCACTCGATC ((((((....))))))            51.2
 8    GCGCTCGAAAGAGCCGC ((((((....))).)))            62.4
 9      GATCTGTGGACAGATC ((((((....))))))            53.2
10      GATCCCTGACGGGATC ((((((....))))))            58.1
11              GCGACCGCTCGC ((((....))))            48.1
12          ACTCAGAAATGAGT (((((....)))))            36.7

---

- ASSAY_OVERVIEW: folding enthalpy; higher = less favourable; fluorescence melt of hairpins on a sequencing array, two-state fit
- RUN_CONDITIONS: sodium 0.088 M
Is folding enthalpy at least -30 kcal/mol? Then Fulfilled. If not, Not fulfilled.

> print(dat)
                            sequence.code  category.label
 1  GCGTAGCGAAAGCCAAGC ((.(.((....)).).))       Fulfilled
 2  GTCGTCGAAAGACGGGAC ((((((....)))..)))       Fulfilled
 3  GGACGAGGAAACTCGTCC (((((((....)))))))   Not fulfilled
 4  CGCCCGGAAACGGACGCG ((((((....)))..)))       Fulfilled
 5  GAATGCCGAAAGGCTTTC (((.(((....))).)))       Fulfilled
 6  GCGTAACGAAAGTTTCGC (((.(((....))).)))   Not fulfilled
 7  GGAAGTGCGAAAGCATCC (((..(((....))))))       Fulfilled
 8  GCGTAAGGAAACTTACAC (.(((((....))))).)       Fulfilled
 9      GATCAGATTGCTGATC ((((((....))))))   Not fulfilled
10  GCTCGCGGAAACACGAGC (((((.(....).)))))   Not fulfilled
11  GTCCCAGGAAACTGAGAC (((.(((....))).)))       Fulfilled
12  GCTATGGGAAACCGTAGC ((((.((....)).))))   Not fulfilled
13      GATCCCAGAGGGGATC ((((((....))))))   Not fulfilled
14      GATCCCCGATGGGATC ((((((....))))))   Not fulfilled
15  GTCCCGGGAAACTGGGGC (.(((.(....).))).)   Not fulfilled
16  GTGCGTGGAAACACGTGC (..((((....))))..)       Fulfilled
17  GCCAACGGAAACGTCAGC ((..(((....)))..))       Fulfilled
18      GATCGGTAGGCCGATC ((((((....))))))   Not fulfilled
19  GTAGGCGAAAGCCGATAC ((((((....)))..)))       Fulfilled
20        GATCGTTCTACGATC ((((((...))))))   Not fulfilled
21  GGACAACGAAAGTTCTCC (((.(((....))).)))       Fulfilled
22  GTAACGGGAAACCGTTAC (((((((....)))))))   Not fulfilled
23        GATCCGCCACGGATC ((((((...))))))   Not fulfilled
24    GATGACGAAAGTCCATC ((((((....))).)))       Fulfilled
